- Assay Name: AUC in Sprague-Dawley rat at 10 mg/kg, po
- Format: ADME, organism-based
- Set-up: dose 10 mg/kg, route oral
- Experimental Conditions: plasma
Listing: AUC of selected molecules
Respond numerically; units are ng·h/mL and should not be typed.

Solved cases (2 shown):
COc1ccc(-c2ccc(Cn3c(CC(C)(C)C(=O)O)c(SC(C)(C)C)c4cc(OCc5ccccn5)ccc43)cc2)cn1 :: 26000
CC(C)(C)Sc1c(CC(C)(C)C(=O)O)n(Cc2ccc(-c3nccs3)cc2)c2ccc(OCc3ccccn3)cc12 :: 9540

Enquiry: Consider the molecule CC(C)(C)Sc1c(CC(C)(C)C(=O)O)n(Cc2ccc(-c3cccnc3)cc2)c2ccc(OCc3ccccn3)cc12 and give its recorded AUC.
Return: 1880

Enquiry: Consider the molecule COc1ccc(-c2ccc(Cn3c(CC(C)(C)C(=O)O)c(SC(C)(C)C)c4cc(OCc5ccccn5)ccc43)cc2)nc1 and give its recorded AUC.
Return: 61600

----------
Reported IC50 values, Cytochrome P450 3A4 (Homo sapiens).
Respond numerically; units are µM and should not be typed.

Solved cases (2 shown):
CC(C)(C)Sc1c(CC(C)(C)C(=O)O)n(Cc2ccc(-c3nccs3)cc2)c2ccc(OCc3ccccn3)cc12 :: 1.4
COc1ccc(-c2ccc(Cn3c(CC(C)(C)C(=O)O)c(SC(C)(C)C)c4cc(OCc5ccccn5)ccc43)cc2)nn1 :: 15.1

Enquiry: GET IC50 | system: Cytochrome P450 3A4 (Homo sapiens) | item: CC(C)(C)Sc1c(CC(C)(C)C(=O)O)n(Cc2ccc(-c3cccnc3)cc2)c2ccc(OCc3ccccn3)cc12
Return: 4.7

----------
- Target System: Cytochrome P450 3A4 (Homo sapiens)
- Sequence (P08684 whole entry): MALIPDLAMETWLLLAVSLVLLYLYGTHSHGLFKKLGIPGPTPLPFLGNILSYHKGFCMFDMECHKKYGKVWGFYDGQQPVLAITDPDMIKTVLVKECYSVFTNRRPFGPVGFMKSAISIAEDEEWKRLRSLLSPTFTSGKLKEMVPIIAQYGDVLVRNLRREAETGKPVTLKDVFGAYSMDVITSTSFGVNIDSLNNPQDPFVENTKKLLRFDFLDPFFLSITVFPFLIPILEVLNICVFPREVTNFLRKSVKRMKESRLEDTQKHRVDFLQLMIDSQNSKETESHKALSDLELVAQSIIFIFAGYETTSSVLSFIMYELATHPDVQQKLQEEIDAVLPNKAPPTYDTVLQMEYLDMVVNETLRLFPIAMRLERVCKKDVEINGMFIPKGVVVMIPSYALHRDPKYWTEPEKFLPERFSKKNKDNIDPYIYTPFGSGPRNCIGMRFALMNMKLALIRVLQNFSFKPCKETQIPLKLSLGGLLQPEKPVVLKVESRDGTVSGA
- Assay Name: Inhibition of CYP3A4 assessed as inhibition rate
# if measured TDI < 0.01 min⁻¹: satisfied  # else: not satisfied

Enquiry: Lab note: confirm whether the reported TDI for this compound is below 0.01 min⁻¹, equality not counting. compound: CC(C)(C)Sc1c(CC(C)(C)C(=O)O)n(Cc2ccc(-c3ncc(F)s3)cc2)c2ccc(OCc3ccccn3)cc12
Return: not satisfied

----------
- Target System: Cytochrome P450 2C19 (Homo sapiens)
- Sequence (P33261 whole entry): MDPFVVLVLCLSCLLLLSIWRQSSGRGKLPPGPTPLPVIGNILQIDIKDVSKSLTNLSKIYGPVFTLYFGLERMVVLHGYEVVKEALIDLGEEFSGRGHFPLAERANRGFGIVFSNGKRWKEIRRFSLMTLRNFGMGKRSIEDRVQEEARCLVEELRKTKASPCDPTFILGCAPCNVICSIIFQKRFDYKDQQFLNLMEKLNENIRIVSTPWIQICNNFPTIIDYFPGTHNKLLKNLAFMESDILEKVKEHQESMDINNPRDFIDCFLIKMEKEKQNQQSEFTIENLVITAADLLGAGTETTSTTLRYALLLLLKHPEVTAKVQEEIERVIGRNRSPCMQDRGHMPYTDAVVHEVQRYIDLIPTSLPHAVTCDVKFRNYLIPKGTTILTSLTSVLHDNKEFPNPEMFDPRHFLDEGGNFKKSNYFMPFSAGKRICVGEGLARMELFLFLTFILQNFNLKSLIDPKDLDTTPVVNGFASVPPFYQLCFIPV
Assay Readout: IC50

Enquiry: Consider the molecule COc1ccc(-c2ccc(Cn3c(CC(C)(C)C(=O)O)c(SC(C)(C)C)c4cc(OCc5ccccn5)ccc43)cc2)cn1 and give its recorded IC50.
Return: > 50 µM

----------
- Target System: Arachidonate 5-lipoxygenase-activating protein (Homo sapiens, UniProt P20292)
- Sequence (P20292 whole entry): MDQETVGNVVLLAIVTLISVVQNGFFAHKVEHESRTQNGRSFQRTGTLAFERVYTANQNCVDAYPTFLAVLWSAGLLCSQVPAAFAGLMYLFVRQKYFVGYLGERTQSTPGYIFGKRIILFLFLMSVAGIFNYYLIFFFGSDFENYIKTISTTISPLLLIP
# if measured IC50 < 8 nM: y  # else: n

Please review the following examples before continuing.
Cc1csc(-c2ccc(Cn3c(CC(C)(C)C(=O)O)c(SC(C)(C)C)c4cc(OCc5ccccn5)ccc43)cc2)n1 :: y
CC(C)(C)Sc1c(CC(C)(C)C(=O)O)n(Cc2ccc(-c3cncnc3)cc2)c2ccc(OCc3ccccn3)cc12 :: y
CC(C)(C)Sc1c(CC(C)(C)C(=O)O)n(Cc2ccc(Cl)cc2)c2ccc(OCc3ccccn3)cc12 :: y
COc1ccc(-c2ccc(Cn3c(CC(C)(C)C(=O)O)c(SC(C)(C)C)c4cc(OCc5ccccn5)ccc43)cc2)cn1 :: y
CC(C)(Cc1c(C(=O)C2CCC2)c2cc(OCc3ccccn3)ccc2n1Cc1ccc(-c2nccs2)cc1)C(=O)O :: n
COc1ccc(-c2ccc(Cn3c(CC(C)(C)C(=O)O)c([S+]([O-])C(C)(C)C)c4cc(OCc5ccccn5)ccc43)cc2)cn1 (stereo not drawn) :: n
CC(C)(C)CCc1c(CC(C)(C)C(=O)O)n(Cc2ccc(-c3nccs3)cc2)c2ccc(OCc3ccccn3)cc12 :: n

Read the next record carefully.
Enquiry: Lab note: confirm whether the reported IC50 for this compound is below 8 nM, equality not counting. compound: CC(C)(C)Sc1c(CC(C)(C)C(=O)O)n(Cc2ccc(-c3ncccn3)cc2)c2ccc(OCc3ccccn3)cc12
Return: y

----------
Protein target, amino acids: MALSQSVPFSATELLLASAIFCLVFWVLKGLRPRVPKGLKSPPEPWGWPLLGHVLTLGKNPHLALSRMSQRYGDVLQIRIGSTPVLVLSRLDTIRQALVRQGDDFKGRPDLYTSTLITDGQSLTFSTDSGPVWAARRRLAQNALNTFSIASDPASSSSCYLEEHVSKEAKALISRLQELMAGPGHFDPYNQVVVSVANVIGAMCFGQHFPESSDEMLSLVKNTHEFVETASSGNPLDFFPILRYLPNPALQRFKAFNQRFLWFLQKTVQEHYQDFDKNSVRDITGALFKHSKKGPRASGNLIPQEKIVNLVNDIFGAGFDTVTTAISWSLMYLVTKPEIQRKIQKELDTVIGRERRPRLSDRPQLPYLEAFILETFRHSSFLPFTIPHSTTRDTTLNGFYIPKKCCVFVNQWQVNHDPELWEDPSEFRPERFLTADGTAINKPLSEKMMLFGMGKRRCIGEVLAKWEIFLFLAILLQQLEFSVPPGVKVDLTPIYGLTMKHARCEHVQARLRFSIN
Assay Readout: IC50

Enquiry: Consider the compound COc1ccc(-c2ccc(Cn3c(CC(C)(C)C(=O)O)c(SC(C)(C)C)c4cc(OCc5ccccn5)ccc43)cc2)cn1 and give its recorded IC50.
Return: > 50 µM

----------
- Assay Name: Volume of distribution at steady state in Sprague-Dawley rat at 2 mg/kg, iv and 10 mg/kg, po
- Assay type: ADME, organism-based
- Experimental Conditions: in vivo, read-out: Vdss
Assay Readout: Vd
Value and unit, in that order.

COc1ccc(-c2ccc(Cn3c(CC(C)(C)C(=O)O)c(SC(C)(C)C)c4cc(OCc5ccccn5)ccc43)cc2)nn1 :: 0.47 L/kg
CC(C)(C)Sc1c(CC(C)(C)C(=O)O)n(Cc2ccc(-c3cccnc3)cc2)c2ccc(OCc3ccccn3)cc12 :: 0.38 L/kg
COc1ccc(-c2ccc(Cn3c(CC(C)(C)C(=O)O)c(SC(C)(C)C)c4cc(OCc5ccccn5)ccc43)cc2)cn1 :: 0.3 L/kg

Turning now to a further record.
Enquiry: Consider the compound CC(C)(C)Sc1c(CC(C)(C)C(=O)O)n(Cc2ccc(-c3nccs3)cc2)c2ccc(OCc3ccccn3)cc12 and give its recorded Vd.
Return: 0.71 L/kg

----------
Listing: Cmax of selected compounds
- Assay Name: Cmax in Sprague-Dawley rat after 10 mg/kg oral dose
- Format: ADME, organism-based
- Set-up: dose 10 mg/kg, route oral
- Experimental Conditions: in vivo
Respond numerically; units are ng/mL and should not be typed.

Enquiry: Consider the compound COc1ccc(-c2ccc(Cn3c(CC(C)(C)C(=O)O)c(SC(C)(C)C)c4cc(OCc5ccccn5)ccc43)cc2)nn1 and give its recorded Cmax.
Return: 7900

Enquiry: Consider the compound COc1ccc(-c2ccc(Cn3c(CC(C)(C)C(=O)O)c(SC(C)(C)C)c4cc(OCc5ccccn5)ccc43)cc2)cn1 and give its recorded Cmax.
Return: 9000

Enquiry: Consider the compound COc1ccc(-c2ccc(Cn3c(CC(C)(C)C(=O)O)c(SC(C)(C)C)c4cc(OCc5ccccn5)ccc43)cc2)nc1 and give its recorded Cmax.
Return: 21800

Enquiry: Consider the compound CC(C)(C)Sc1c(CC(C)(C)C(=O)O)n(Cc2ccc(-c3nccs3)cc2)c2ccc(OCc3ccccn3)cc12 and give its recorded Cmax.
Return: 4300

Enquiry: Consider the compound CC(C)(C)Sc1c(CC(C)(C)C(=O)O)n(Cc2ccc(-c3cccnc3)cc2)c2ccc(OCc3ccccn3)cc12 and give its recorded Cmax.
Return: 920

----------
- Assay Name: Clearance in Sprague-Dawley rat at 2 mg/kg, iv and 10 mg/kg, po
- Assay type: ADME, organism-based
- Experimental Conditions: in vivo
Assay Readout: clearance (mL/min/kg)
Respond numerically; units are mL/min/kg and should not be typed.

Solved cases (2 shown):
CC(C)(C)Sc1c(CC(C)(C)C(=O)O)n(Cc2ccc(-c3cccnc3)cc2)c2ccc(OCc3ccccn3)cc12 :: 7
COc1ccc(-c2ccc(Cn3c(CC(C)(C)C(=O)O)c(SC(C)(C)C)c4cc(OCc5ccccn5)ccc43)cc2)cn1 :: 5.4

Turning now to a further record.
Enquiry: Consider the molecule CC(C)(C)Sc1c(CC(C)(C)C(=O)O)n(Cc2ccc(-c3nccs3)cc2)c2ccc(OCc3ccccn3)cc12 and give its recorded clearance.
Return: 8.6

----------
- Assay Name: Bioavailability in dog at 2 mg/kg, iv and 5 mg/kg, po
- Assay type: ADME, organism-based, Canis lupus familiaris
- Experimental Conditions: in vivo
Assay Readout: bioavailability
Value and unit, in that order.

Enquiry: Consider the compound COc1ccc(-c2ccc(Cn3c(CC(C)(C)C(=O)O)c(SC(C)(C)C)c4cc(OCc5ccccn5)ccc43)cc2)cn1 and give its recorded bioavailability.
Return: 64%

----------
- Target System: Cytochrome P450 2C9 (Homo sapiens, UniProt P11712)
- Sequence (P11712 whole entry): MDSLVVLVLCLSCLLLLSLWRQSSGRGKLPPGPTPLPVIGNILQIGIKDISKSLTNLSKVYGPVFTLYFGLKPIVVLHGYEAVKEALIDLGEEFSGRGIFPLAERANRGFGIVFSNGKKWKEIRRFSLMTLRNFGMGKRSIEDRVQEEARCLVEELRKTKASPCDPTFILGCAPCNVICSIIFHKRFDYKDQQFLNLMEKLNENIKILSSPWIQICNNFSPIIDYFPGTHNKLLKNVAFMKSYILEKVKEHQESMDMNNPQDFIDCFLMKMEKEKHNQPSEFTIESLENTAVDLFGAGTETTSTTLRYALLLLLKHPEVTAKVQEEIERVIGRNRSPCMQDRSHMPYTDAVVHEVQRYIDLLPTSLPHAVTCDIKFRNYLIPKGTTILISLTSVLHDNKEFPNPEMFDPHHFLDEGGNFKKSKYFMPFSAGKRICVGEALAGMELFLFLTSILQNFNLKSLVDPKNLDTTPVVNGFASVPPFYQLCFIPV
Assay Readout: pIC50
# pIC50: negative log10 of molar concentration; output just the value

CC(C)(C)Sc1c(CC(C)(C)C(=O)O)n(Cc2ccc(-c3cccnc3)cc2)c2ccc(OCc3ccccn3)cc12 :: 4.81

Enquiry: GET pIC50 | system: Cytochrome P450 2C9 (Homo sapiens, UniProt P11712) | item: CC(C)(C)Sc1c(CC(C)(C)C(=O)O)n(Cc2ccc(-c3nccs3)cc2)c2ccc(OCc3ccccn3)cc12
Return: 5.04
